Test system: A549
Test method notes: NCI tumour cell line growth inhibition, 48 h
Active and inactive are the calls of the source. Cut-off read from the data, not from the text of the source: active = GI50 up to about 1.1 µM and inactive = higher.
Quick reference for GI50 among some compounds

Example compounds with recorded GI50:
[[record]]
compound = "O=S(=O)(/N=C(\\NO)Nc1ccc(Cl)cc1)c1ccc(-c2ccccn2)s1"
recorded_result = "61 µM (inactive)"

[[record]]
compound = "NNC(=S)N/N=C(\\c1nc2ccc(Cl)cc2nc1O)C(O)c1ccc(Cl)cc1Cl (stereo not given)"
recorded_result = "> 100 µM (inactive)"

[[record]]
compound = "O=C1C=CC(=O)c2c1ccc1c3ccccc3n(CCCCCCCCn3c4ccccc4c4ccc5c(c43)C(=O)C=CC5=O)c21"
recorded_result = "> 100 µM (inactive)"


Look up GI50 for this compound: CN(C)c1ccc(/C=c2/c3ccccc3n3c2cc(C24CC5CC(CC(C5)C2)C4)[n+]3C)cc1
0.205 µM (active)

Entry Cc1c2cc[n+](C)cc2c(COC2OC(CO)C(O)C2O)c2c3ccccc3n(C)c12 (stereo not given) please
74.3 µM (inactive)
